From: the supplement of paper PMC8728848

Target: Gal3S(b1-3)GlcNAc
Test: glycan array binding signal (z-score within array); higher = stronger binding
Details: glycan notation: IUPAC condensed, linker removed
This is one part of a sample in which the strongest signals are shown more often than they occur.
Values of glycan array binding signal (z-score) greater than or equal to -0.2 map to Criterion met; values below map to Criterion not met.

# bool: glycan array binding signal (z-score) of DC-SIGN (Canis lupus), XP_853402 (protein) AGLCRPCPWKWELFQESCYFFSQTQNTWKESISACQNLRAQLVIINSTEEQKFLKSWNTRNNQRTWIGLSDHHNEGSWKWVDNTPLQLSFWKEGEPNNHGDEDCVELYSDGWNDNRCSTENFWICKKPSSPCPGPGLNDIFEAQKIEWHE >= -0.2
Criterion met

# bool: glycan array binding signal (z-score) of MVL (Microcystis viridis), Q9RHG4 (protein) MASYKVNIPAGPLWSNAEAQQVGPKIAAAHQGNFTGQWTTVVESAMSVVEVELQVENTGIHEFKTDVLAGPLWSNDEAQKLGPQIAASYGAEFTGQWRTIVEGVMSVIQIKYTF >= -0.2
Criterion not met

# bool: glycan array binding signal (z-score) of cFel (Cyprinus carpio), P68512 (protein) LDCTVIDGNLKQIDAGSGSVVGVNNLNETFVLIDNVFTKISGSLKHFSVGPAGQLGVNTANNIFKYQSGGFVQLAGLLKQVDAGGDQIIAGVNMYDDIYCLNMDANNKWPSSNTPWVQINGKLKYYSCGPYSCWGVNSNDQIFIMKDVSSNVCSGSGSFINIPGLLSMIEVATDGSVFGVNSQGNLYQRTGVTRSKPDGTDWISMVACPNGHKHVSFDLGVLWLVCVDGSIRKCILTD >= -0.2
Criterion not met

# bool: glycan array binding signal (z-score) of TIM-1 (Mus musculus), AAL35774 (protein) MNQIQVFISGLILLLPGAVDSYVEVKGVVGHPVTLPCTYSTYRGITTTCWGRGQCPSSACQNTLIWTNGHRVTYQKSSRYNLKGHISEGDVSLTIENSVESDSGLYCCRVEIPGWFNDQKVTFSLQVKPEIPTRPPTRPTTTRPTATGRPTTISTRSTHVPTSIRVSTSTPPTSTHTWTHKPEPTTFCPHETTAEVTGIPSHTPTDWNGTVTSSGDTWSNHTEAIPPGKPQKNPTKGFYVGICIAALLLLLLVSTVAITRYILMKRKSASLSVVAFRVSKIEALQNAAVVHSRAEDNIYIVEDRP >= -0.2
Criterion not met

# bool: glycan array binding signal (z-score) of Intelectin-1a (Mus musculus) (protein) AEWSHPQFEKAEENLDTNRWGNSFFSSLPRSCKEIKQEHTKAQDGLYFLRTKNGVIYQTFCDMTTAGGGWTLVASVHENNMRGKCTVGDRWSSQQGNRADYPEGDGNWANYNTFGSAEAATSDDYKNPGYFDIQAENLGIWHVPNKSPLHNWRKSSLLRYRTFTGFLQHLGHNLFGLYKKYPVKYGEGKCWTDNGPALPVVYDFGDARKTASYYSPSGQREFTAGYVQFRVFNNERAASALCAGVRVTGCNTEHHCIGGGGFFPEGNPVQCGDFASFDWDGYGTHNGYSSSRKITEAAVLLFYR >= -0.2
Criterion not met

# bool: glycan array binding signal (z-score) of Thrombomodulin (Mus musculus) (protein) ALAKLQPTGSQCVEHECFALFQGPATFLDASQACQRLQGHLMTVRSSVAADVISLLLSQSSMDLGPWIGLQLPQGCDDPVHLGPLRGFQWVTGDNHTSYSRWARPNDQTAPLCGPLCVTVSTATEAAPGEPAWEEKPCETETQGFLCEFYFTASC >= -0.2
Criterion met
